Target under test: FAAH (Rattus norvegicus, UniProt P97612)
Sequence (P97612 whole entry): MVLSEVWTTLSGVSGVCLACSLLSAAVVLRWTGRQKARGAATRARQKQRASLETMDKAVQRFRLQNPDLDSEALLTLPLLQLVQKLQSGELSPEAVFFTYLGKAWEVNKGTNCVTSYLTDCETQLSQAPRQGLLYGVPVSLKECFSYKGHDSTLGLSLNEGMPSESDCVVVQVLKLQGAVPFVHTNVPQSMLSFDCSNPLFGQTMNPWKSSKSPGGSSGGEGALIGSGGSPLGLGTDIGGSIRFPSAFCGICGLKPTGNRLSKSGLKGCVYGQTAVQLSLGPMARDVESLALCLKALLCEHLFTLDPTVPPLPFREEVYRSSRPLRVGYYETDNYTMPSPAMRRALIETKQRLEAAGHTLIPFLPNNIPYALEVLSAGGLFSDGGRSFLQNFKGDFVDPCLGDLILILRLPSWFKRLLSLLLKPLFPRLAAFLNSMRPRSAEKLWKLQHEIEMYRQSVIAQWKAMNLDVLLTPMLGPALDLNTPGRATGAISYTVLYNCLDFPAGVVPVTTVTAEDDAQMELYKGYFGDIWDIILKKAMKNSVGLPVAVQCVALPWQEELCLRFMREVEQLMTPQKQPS
Method notes: Assay Method 1A: FAAH enzyme assay, 14C-oleamide hydrolysis, solubilized liver plasma membrane extract;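 note: ki obtained by Dixon analysis, taking the x-intercept of inhibitor concentration versus reciprocal rate plots at fixed substrate level and correcting for substrate concentration relative to Km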
Test conditions: read-out: Assay 1A Ki; liver plasma membrane extract containing FAAH, 14C-oleamide, pH 9.0, 20-23 °C, Dixon method
pKi: −log10 of the molar value.
Reported metric: pKi

>>> obs_value("O=C(O)c1cccc(-c2cnc(C(=O)CCCCCCc3ccccc3)o2)n1")
7.70

---

Method notes: Pharmacokinetic testing, intravenous bolus in rats
Format: in vivo
Test conditions: rat, plasma, 2 mg/kg, male Sprague Dawley rats, 1 mg/mL in 2 mL/kg
Listing: clearance of selected compounds
Reported metric: clearance (mL/min/kg)

>>> obs_value("O=C(O)c1ccc(-c2cnc(C(=O)CCCCCCc3ccccc3)o2)nc1")
112
>>> obs_value("O=C(O)c1cccc(-c2cnc(C(=O)CCCCCCc3ccccc3)o2)n1")
7.67
>>> obs_value("O=C(CCCCCCc1ccccc1)c1ncc(-c2ccccn2)o1 [Comp. Ex. 1, reference compound]")
98.3
>>> obs_value("O=C(CCCCCCc1ccccc1)c1ncc(-c2ccco2)o1 [Comp. Ex. 2, reference compound]")
63.3
